The values you see were collected from patent US20060264460A1.

target-desc: human Cot/Tpl2 kinase (Homo sapiens, UniProt P41279)
Construct: human Cot/Tpl2 kinase construct encoding residues 30-398; 6His (N); made in house; host or cells: Sf9 insect cells, baculovirus system (BD Biosciences)
Sequence (P41279 30-398): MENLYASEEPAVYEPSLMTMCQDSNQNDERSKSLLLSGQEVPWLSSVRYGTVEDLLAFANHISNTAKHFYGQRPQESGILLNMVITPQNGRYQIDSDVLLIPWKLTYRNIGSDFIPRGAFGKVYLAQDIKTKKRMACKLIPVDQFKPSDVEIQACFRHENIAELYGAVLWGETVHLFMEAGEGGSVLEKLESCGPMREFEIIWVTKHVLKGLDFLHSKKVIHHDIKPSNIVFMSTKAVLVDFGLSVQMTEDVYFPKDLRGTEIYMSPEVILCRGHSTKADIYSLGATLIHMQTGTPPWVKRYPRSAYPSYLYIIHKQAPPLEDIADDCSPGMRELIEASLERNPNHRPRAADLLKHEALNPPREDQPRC
assay-explanation: Tpl2/Cot kinase assay: GST-MEK1 phosphorylation detected by ELISA (DELFIA Eu)
Assay type: biochemical
conditions-used: 0.4 nM Tpl2, 35 nM GST-MEK1, 50 uM ATP, 1 h at 30° C.
pIC50: −log10 of the molar value.
test-readout: pIC50

Request: Supply recorded pIC50 for N#Cc1cnc2ccc(NCc3ccc([N+](=O)[O-])cc3)cc2c1Nc1ccc(F)c(Cl)c1 here.
Response: 6.72

Request: Supply recorded pIC50 for N#Cc1cnc2c(Br)cc(NCc3nn[nH]c3CNCCO)cc2c1Nc1ccc(F)c(Cl)c1 here.
Response: 7.17

(P) N#Cc1cnc2ccc(NCc3cccc([N+](=O)[O-])c3)cc2c1Nc1ccc(F)c(Cl)c1
(Q) N#Cc1cnc2c(F)cc(NCc3cc[n+]([O-])cc3)cc2c1Nc1ccc(F)c(Cl)c1
Request: Between the two listed entries P and Q , which has its pIC50 at the higher number? Please reply using the label of the selected record.
Response: Q
(Q: 7.00, P: 6.70)

---

target-desc: human Cot/Tpl2 kinase (Homo sapiens, UniProt P41279)
Construct: human Cot/Tpl2 kinase construct encoding residues 30-398; 6His (N); made in house; host or cells: Sf9 insect cells, baculovirus system (BD Biosciences)
assay-explanation: Tpl2/Cot kinase assay: GST-MEK1 phosphorylation detected by ELISA (DELFIA Eu)
Assay type: biochemical
conditions-used: 0.4 nM Tpl2, 35 nM GST-MEK1, 50 uM ATP, 1 h at 30° C.
pIC50: −log10 of the molar value.
test-readout: pIC50

Check out these entries, answers already filled in.
Request: Supply pIC50 measured with human Cot/Tpl2 kinase (Homo sapiens, UniProt P41279) for N#Cc1cnc2c(F)cc(NCc3cnc[nH]3)cc2c1Nc1ccc(F)c(Cl)c1 .
Response: 7.68

Request: Supply pIC50 measured with human Cot/Tpl2 kinase (Homo sapiens, UniProt P41279) for N#Cc1cnc2c(Br)cc(NCc3cnc(-c4ccccc4)[nH]3)cc2c1Nc1ccc(F)c(Cl)c1 .
Response: 5.23

(A) CC(O)Cc1nn[nH]c1CNc1cc(Br)c2ncc(C#N)c(Nc3ccc(F)c(Cl)c3)c2c1 (stereo not shown)
(B) N#Cc1cnc2c(Cl)cc(NCc3ccc(C(F)(F)F)[n+]([O-])c3)cc2c1Nc1ccc(F)c(Cl)c1
Request: Record comparison, field pIC50: mark the lower of A and B . Please reply using the label of the selected record.
Response: B
(B: 6.43, A: 8.24)

---

target-desc: human Cot/Tpl2 kinase (Homo sapiens, UniProt P41279)
Construct: human Cot/Tpl2 kinase construct encoding residues 30-398; 6His (N); made in house; host or cells: Sf9 insect cells, baculovirus system (BD Biosciences)
assay-explanation: Tpl2/Cot kinase assay: GST-MEK1 phosphorylation detected by ELISA (DELFIA Eu)
Type: biochemical
conditions-used: Tpl2/Cot kinase, GST-MEK1 substrate, 50 uM ATP
test-readout: IC50 (µM)

Check out these entries, answers already filled in.
Request: Supply IC50 measured with human Cot/Tpl2 kinase (Homo sapiens, UniProt P41279) for N#Cc1cnc2c(Br)cc(NCc3cn(CCc4ccccn4)nn3)cc2c1Nc1ccc(F)c(Cl)c1 .
Response: 0.0034

Request: Supply IC50 measured with human Cot/Tpl2 kinase (Homo sapiens, UniProt P41279) for N#Cc1cnc2c(Cl)cc(NCc3cn(CC4CCCNC4)nn3)cc2c1Nc1ccc(F)c(Cl)c1 (stereo not shown) .
Response: 0.048

Request: Supply IC50 measured with human Cot/Tpl2 kinase (Homo sapiens, UniProt P41279) for N#Cc1cnc2c(Cl)cc(NCc3cn(Cc4cccc(C(F)(F)F)n4)nn3)cc2c1Nc1ccc(F)c(Cl)c1 .
Response: 0.27

(I) CCN1CCC[C@H]1CNc1cc(Cl)c2ncc(C#N)c(Nc3ccc(F)c(Cl)c3)c2c1
(II) CC1(C)OC[C@H](CNc2cc(Cl)c3ncc(C#N)c(Nc4ccc(F)c(Cl)c4)c3c2)O1
Request: Between the two listed entries I and II , which has its IC50 at the higher number? Please reply using the label of the selected record.
Response: I
(I: 0.33 µM, II: 0.2 µM)
